FYI, the data here is from PubChem BioAssay (NCI).

tested on: SNB-75 CNS; experiment: NCI-60 one-dose screen, 48 h (100 = growth as untreated, 0 = no growth, -100 = all killed); conditions: 10 µM
This is part of a sample that, as a whole, favours compounds with a hit. Of some 83,000 tested, about 20% had one in any assay.
The label depends only on growth: criterion met if it is at least 80%, criterion not met if it is smaller.

molecule=O=C(O)c1ccc(P(=O)(O)O)c([N+](=O)[O-])c1 category="criterion met"

Here's the next entry for you.
Is growth for `Cc1ccc(C(=O)N2C/C(=C/c3ccc(F)cc3)C(=O)/C(=C/c3ccc(F)cc3)C2)cc1` at or above 80%?
criterion not met

---

Please respond with reported growth for every item in the list.
tested on: HCC-2998 colon; assay: NCI-60 one-dose screen, 48 h (100 = growth as untreated, 0 = no growth, -100 = all killed); conditions: 10 µM
This is part of a sample that, as a whole, favours compounds with a hit. Of some 83,000 tested, about 20% had one in any assay. Calls of active or inactive are those of the source. The calls were made as follows: active = growth percent below 10; inactive = the rest.

Sample answers from the record:
compound=COc1ccccc1CNCCCN1C(=O)c2ccc3c4c(ccc(c24)C1=O)C(=O)N(CCCN)C3=O measured_value="-56.8% (active)"
compound=COc1ccc(Cl)cc1C(=O)Nc1nc2ccc(Cl)cc2s1 measured_value="102% (inactive)"
compound=O=C(Nc1cccc(-n2cc(-c3ccncc3)c(-c3ccc(O)c(Cl)c3)n2)c1)c1ccc(N2CCOCC2)c(C(F)(F)F)c1 measured_value="23.6% (inactive)"
compound=C#Cc1ccc(-n2c(/C=C/c3ccc(C(F)(F)F)cc3)nc3ncccc3c2=O)cc1 measured_value="18.7% (inactive)"
compound=CSC1=NCCCC1 measured_value="115% (inactive)"

Give growth for each of the items listed below.
1. COc1ccc(-c2cc(-c3ccc(N(C)C)cc3)c(C#N)c(N3CCCC3)n2)cc1
2. CC(=O)/C(=C/c1ccccc1)C(=O)CC(C)C
3. O=C1NC(=O)c2ncccc21
4. COc1cc(Cl)cc(-c2nn(-c3cccc(NC(=O)Nc4cc(C(F)(F)F)cc(C(F)(F)F)c4)c3)cc2-c2ccncc2)c1
5. Cn1c([N+](=O)[O-])cnc1/C=C1\Oc2ccc(Cl)cc2C1=O

1. 83.6% (inactive)
2. 105% (inactive)
3. 103% (inactive)
4. 9.5% (active)
5. -58.6% (active)

---

I'd appreciate it if you could supply growth values for the items below.
test system: MCF7 breast; assay: NCI-60 one-dose screen, 48 h (100 = growth as untreated, 0 = no growth, -100 = all killed); details: 10 µM
The panel holds about 83,000 compounds, 20% with a hit somewhere; the sample as a whole holds those more often.
Answers are plain numbers, in %.

For each listed entry, give its growth.
1. COc1cc2cc3c(nc2cc1OC)CCN3Cc1ccc(NC(=O)Nc2cc(C(F)(F)F)cc(C(F)(F)F)c2)cc1
2. Nc1nc(N)c(NC(=O)CNc2ccc(C(=O)O)cc2)c(N)n1
3. C#Cc1ccc(-n2c(/C=C/c3ccc(Cl)c(F)c3)nc3ncccc3c2=O)cc1
4. C=C(C(=O)c1ccccc1)C(NC(C)(C)C)c1ccccc1 (configuration not stated)
5. O=C(CCCCC(=O)Nc1ccc2c(c1)/C(=C/c1ccc[nH]1)C(=O)N2)NO
6. COc1ccccc1CNCCN1C(=O)c2ccc3c4c(ccc(c24)C1=O)C(=O)N(CCNCc1ccccc1OC)C3=O
7. COc1ccc(/C=C2/CN(C(=O)c3ccccc3F)C/C(=C\c3ccc(OC)cc3)C2=O)cc1

[49.3, 91.3, 3.48, 9.57, 61.9, -69.2, 8.16]

Provide reported growth for each item, in the same order as listed.
1. CCCCCCCCCCCCCCCCN(C(C)c1ccccc1)S(=O)(=O)c1ccc(OC)c(N)c1 (configuration not stated)
2. Cn1c(N)c(N=Nc2ccc(S(=O)(=O)Nc3nccs3)cc2)c(=O)n(C)c1=O
3. CC(=O)OCc1cc(-c2nc3ccccc3[nH]c2=O)nn1-c1ccc(Cl)cc1
4. COc1ccc(-c2nn(-c3cccc(NC(=O)Nc4ccccc4)c3)cc2-c2ccncc2)cc1Cl
5. CC(=O)N1N=C(c2ccc(Cl)cc2)CC1c1sc(Cl)nc1Cl (configuration not stated)
6. Clc1ccc(-c2cn(-c3ccccc3)c(-c3ccccc3)n2)c(Cl)c1
7. S=c1[nH]ccn1-c1c(Cl)cccc1Cl

1. 95.9
2. 101
3. 85.9
4. 0.285
5. 85.9
6. 5.1
7. 97.8

Give growth for all compounds that follow.
1. COc1ccc(-c2nc(-c3nc4cc(Cl)c(F)cc4[nH]3)c3ccccn23)cc1
2. O=C1CC[C@@H]2CCCC[C@@H]2C1
3. CSc1nc(=O)n(Cc2ccc(F)cc2)c(=O)n1Cc1ccc(C)cc1
4. N=C(N)c1ccc(-c2ccc(-c3cccs3)s2)cc1
5. O=C1/C(=C\c2ccc(Br)cc2)CN(C(=O)c2ccccc2F)C/C1=C\c1ccc(Br)cc1

1. 58.1
2. 97.2
3. 91.1
4. -79.4
5. -33.5
